These data points were gathered from patent US11414406B2.

Here the recorded IC50 is given for each entry.
target: UniProtKB P08173; experiment: mAChR M4 cell-based functional assay (calcium flux, decrease of EC80 acetylcholine response); conditions: M4/Gqi5/CHO-K1 cells; decrease of response to EC80 acetylcholine
endpoint: IC50 (nM)

Fc1cccc(Cl)c1-c1ccc(N[C@H]2[C@@H]3CN(CC4CCOCC4)C[C@@H]32)nn1
3180
Cc1nn(C)cc1-c1ccc(N[C@H]2[C@@H]3CN(CCC(C)(C)C)C[C@@H]32)nn1
280
Cn1cc2cc(-c3ccc(N[C@H]4[C@@H]5CN(CCC(C)(C)C)C[C@@H]54)nn3)ccc2n1
139
Fc1ccc(Cl)c(-c2ccc(N[C@H]3[C@@H]4CN(Cc5ccccn5)C[C@@H]43)nn2)c1
6770
Cc1nn(C)cc1-c1ccc(N[C@H]2[C@@H]3CN(CC4CC5C=CC4C5)C[C@@H]32)nn1 (stereo partly drawn)
100
CC(C)(C)CCN1C[C@@H]2[C@H](C1)[C@H]2Nc1ccc(-c2cc(F)ccc2Cl)nn1
25.5
Fc1cccc(-c2ccc(N[C@H]3[C@@H]4CN(CC5CCOCC5)C[C@@H]43)nn2)c1Cl
1850
c1cnc2ccc(-c3ccc(N[C@H]4[C@@H]5CN(CC6CCOCC6)C[C@@H]54)nn3)cc2c1
3760
Fc1ccc(Cl)c(-c2ccc(N[C@H]3[C@@H]4CN(Cc5ccc6c(c5)OCO6)C[C@@H]43)nn2)c1
889
Cc1cc(CN2C[C@@H]3[C@H](C2)[C@H]3Nc2ccc(-c3cc(F)ccc3Cl)nn2)nn1C
4760
Clc1ccccc1-c1ccc(N[C@H]2[C@@H]3CN(CC4CCOCC4)C[C@@H]32)nn1
2960
Fc1ccc(CN2C[C@@H]3[C@H](C2)[C@H]3Nc2ccc(-c3cc(F)ccc3Cl)nn2)cc1
1660
Fc1ccc(Cl)c(-c2ccc(N[C@H]3[C@@H]4CN(CC5CCOCC5)C[C@@H]43)nn2)c1
1110
CC(C)(C)CCN1C[C@@H]2[C@H](C1)[C@H]2Nc1ccc(-c2cc(F)ccc2F)nn1
255

====

Here the recorded remaining activity at 30 µM is given for each entry.
Target: Human M4 (Homo sapiens, UniProt P08173)
Construct: expressed in transfected cells
Sequence (P08173 1-479): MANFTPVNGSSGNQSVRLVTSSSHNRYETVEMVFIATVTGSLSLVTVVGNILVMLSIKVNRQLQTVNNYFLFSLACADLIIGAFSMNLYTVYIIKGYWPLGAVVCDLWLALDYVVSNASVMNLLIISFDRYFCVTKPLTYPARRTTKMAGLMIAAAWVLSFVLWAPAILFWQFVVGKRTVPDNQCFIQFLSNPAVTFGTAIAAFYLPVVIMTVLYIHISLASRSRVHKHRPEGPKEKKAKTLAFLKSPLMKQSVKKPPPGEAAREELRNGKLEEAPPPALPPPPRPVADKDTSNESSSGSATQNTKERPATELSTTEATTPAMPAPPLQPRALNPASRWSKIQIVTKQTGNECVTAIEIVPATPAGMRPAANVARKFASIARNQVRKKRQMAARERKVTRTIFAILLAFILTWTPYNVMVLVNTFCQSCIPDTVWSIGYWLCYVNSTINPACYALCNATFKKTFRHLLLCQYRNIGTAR
Assay: mAChR M4 cell-based functional assay (calcium flux, decrease of EC80 acetylcholine response)
Conditions: M4/Gqi5/CHO-K1 cells; % ACh maximum at 30 μM; read-out: Emin (% ACh maximum at 30 μM)
endpoint: remaining activity at 30 µM (%)

Fc1ccc(-c2ccc(N[C@H]3[C@@H]4CN(CC5CCOCC5)C[C@@H]43)nn2)c(F)c1
40
CC(C)(C)CCN1C[C@@H]2[C@H](C1)[C@H]2NCc1ccc(-c2cc(F)ccc2Cl)nn1
20.4
Fc1cccc(-c2ccc(N[C@H]3[C@@H]4CN(CC5CCOCC5)C[C@@H]43)nn2)c1F
27
Fc1cccc(-c2ccc(N[C@H]3[C@@H]4CN(CC5CCOCC5)C[C@@H]43)nn2)c1Cl
8
Fc1ccc(F)c(-c2ccc(N[C@H]3[C@@H]4CN(Cc5ccccc5F)C[C@@H]43)nn2)c1
39
c1cc(C2CC2)ncc1-c1ccc(N[C@H]2[C@@H]3CN(CC4CCOCC4)C[C@@H]32)nn1
30
Cn1cc2cc(-c3ccc(N[C@H]4[C@@H]5CN(CC6CCOCC6)C[C@@H]54)nn3)ccc2n1
27
FC(F)(F)c1ccc(-c2ccc(N[C@H]3[C@@H]4CN(CC5CCOCC5)C[C@@H]43)nn2)cn1
48
Fc1ccc(F)c(-c2ccc(N[C@H]3[C@@H]4CN(Cc5ccc6c(c5)OCO6)C[C@@H]43)nn2)c1
36
Clc1ccccc1-c1ccc(N[C@H]2[C@@H]3CN(CC4CCOCC4)C[C@@H]32)nn1
11
Fc1ccc(Cl)c(-c2ccc(N[C@H]3[C@@H]4CN(CC5CCOCC5)C[C@@H]43)nn2)c1
8
c1ccc(-c2ccc(N[C@H]3[C@@H]4CN(CC5CCOCC5)C[C@@H]43)nn2)cc1
28
c1ccc2cc(-c3ccc(N[C@H]4[C@@H]5CN(CC6CCOCC6)C[C@@H]54)nn3)ccc2c1
15
Cc1cc(CN2C[C@@H]3[C@H](C2)[C@H]3Nc2ccc(-c3cc(F)ccc3Cl)nn2)nn1C
13
Cc1nn(C)cc1-c1ccc(N[C@H]2[C@@H]3CN(CC4CC5C=CC4C5)C[C@@H]32)nn1 (some centres unmarked)
5
Fc1ccc(Cl)c(-c2ccc(N[C@H]3[C@@H]4CN(Cc5ccccn5)C[C@@H]43)nn2)c1
16
Fc1cccc(Cl)c1-c1ccc(N[C@H]2[C@@H]3CN(CC4CCOCC4)C[C@@H]32)nn1
14
Cc1nn(C)cc1-c1ccc(CN[C@H]2[C@@H]3CN(CC4CCCCC4)C[C@@H]32)nn1
32.5
CC(=O)Nc1ccc(-c2ccc(N[C@H]3[C@@H]4CN(CC5CCOCC5)C[C@@H]43)nn2)cc1
39
Fc1ccc(-c2ccc(N[C@H]3[C@@H]4CN(CC5CCOCC5)C[C@@H]43)nn2)cc1
37
c1cnc2ccc(-c3ccc(N[C@H]4[C@@H]5CN(CC6CCOCC6)C[C@@H]54)nn3)cc2c1
13
c1cc2c(cc1-c1ccc(N[C@H]3[C@@H]4CN(CC5CCOCC5)C[C@@H]43)nn1)OCO2
16
Fc1ccc(F)c(-c2ccc(N[C@H]3[C@@H]4CN(CC5CCOCC5)C[C@@H]43)nn2)c1
28
Cn1cc2cc(-c3ccc(N[C@H]4[C@@H]5CN(CCC(C)(C)C)C[C@@H]54)nn3)ccc2n1
5
Cc1nn(C)cc1-c1ccc(N[C@H]2[C@@H]3CN(CC(C)C(C)(C)C)C[C@@H]32)nn1 (some centres unmarked)
24
Fc1cccc(CN2C[C@@H]3[C@H](C2)[C@H]3Nc2ccc(-c3cc(F)ccc3Cl)nn2)c1
29
Cc1cc(CN2C[C@@H]3[C@H](C2)[C@H]3Nc2ccc(-c3cc(F)ccc3F)nn2)nn1C
38
CC(C)(C)CCN1C[C@@H]2[C@H](C1)[C@H]2Nc1ccc(-c2cc(F)ccc2Cl)nn1
4
Cc1cc(CN2C[C@@H]3[C@H](C2)[C@H]3Nc2ccc(-c3ccc4nn(C)cc4c3)nn2)nn1C
40
